# targetOfAssay: Leukotriene A-4 hydrolase (Homo sapiens)
# Sequence (P09960 whole entry): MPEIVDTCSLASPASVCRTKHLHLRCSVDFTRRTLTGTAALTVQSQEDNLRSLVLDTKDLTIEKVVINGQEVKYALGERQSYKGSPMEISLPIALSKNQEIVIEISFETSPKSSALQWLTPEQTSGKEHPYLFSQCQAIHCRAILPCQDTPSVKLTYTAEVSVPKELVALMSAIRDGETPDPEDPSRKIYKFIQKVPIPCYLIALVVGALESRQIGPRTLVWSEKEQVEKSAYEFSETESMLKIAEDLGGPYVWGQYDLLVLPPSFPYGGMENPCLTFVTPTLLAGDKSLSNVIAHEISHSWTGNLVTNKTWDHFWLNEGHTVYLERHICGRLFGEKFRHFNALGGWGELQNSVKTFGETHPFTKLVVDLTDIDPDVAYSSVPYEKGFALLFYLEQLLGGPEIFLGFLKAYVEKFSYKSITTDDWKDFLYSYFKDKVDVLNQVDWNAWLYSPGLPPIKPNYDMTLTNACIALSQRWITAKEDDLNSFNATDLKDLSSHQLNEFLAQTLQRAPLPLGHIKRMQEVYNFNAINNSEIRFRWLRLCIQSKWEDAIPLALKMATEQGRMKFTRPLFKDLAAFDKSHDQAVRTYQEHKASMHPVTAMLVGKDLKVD
# assay: Inhibition of human whole blood LTB-4 production (Leukotriene B-4).
# Assay type: functional
quantityMeasured: log10(IC50) (log10 of the value in nM)

INSERT INTO assay_data (itemsmiles, targetofassay, observedresult) VALUES
  ('COC(=O)CCNCCOc1ccc(Cc2ccccc2)cc1', 'Leukotriene A-4 hydrolase (Homo sapiens)', 2.77),
  ('CN(CCCOc1ccc(Cc2ccccc2)cc1)CCC(=O)NS(C)(=O)=O', 'Leukotriene A-4 hydrolase (Homo sapiens)', 1.85),
  ('CN(CCCOc1ccc(Cc2ccccc2)cc1)CCS(N)(=O)=O', 'Leukotriene A-4 hydrolase (Homo sapiens)', 2.87),
  ('COC(=O)CCN(C)CCCOc1ccc(Cc2ccsc2)cc1', 'Leukotriene A-4 hydrolase (Homo sapiens)', 2.40),
  ('CN(CCCOc1ccc(Oc2ccc(-c3ncco3)cc2)cc1)CCC(=O)O', 'Leukotriene A-4 hydrolase (Homo sapiens)', 2.28),
  ('CN(CCCOc1ccc(Oc2ccccc2)cc1)CCC(=O)O', 'Leukotriene A-4 hydrolase (Homo sapiens)', 2.36),
  ('CN(CCCOc1ccc(Cc2ccccc2)cc1)CCC(=O)NS(=O)(=O)c1ccccc1', 'Leukotriene A-4 hydrolase (Homo sapiens)', 1.88),
  ('O=C(O)CNCCCCOc1ccc(Cc2ccccc2)cc1', 'Leukotriene A-4 hydrolase (Homo sapiens)', 2.36),
  ('CN(CCCOc1ccc(Cc2ccccc2)cc1)CCn1cnnn1', 'Leukotriene A-4 hydrolase (Homo sapiens)', 2.75),
  ('O=C(O)CCNCCCCOc1ccc(Cc2ccccc2)cc1', 'Leukotriene A-4 hydrolase (Homo sapiens)', 2.69),
  ('CCOC(=O)CCN(C)CCCOc1ccc(Cc2ccccc2)cc1', 'Leukotriene A-4 hydrolase (Homo sapiens)', 2.04),
  ('CCOC(=O)CCCCNCCOc1ccc(Cc2ccccc2)cc1', 'Leukotriene A-4 hydrolase (Homo sapiens)', 3.40),
  ('CCOC(=O)CCN(C)CCCCOc1ccc(Cc2ccccc2)cc1', 'Leukotriene A-4 hydrolase (Homo sapiens)', 2.72),
  ('CCOC(=O)CNCCCCOc1ccc(Cc2ccccc2)cc1', 'Leukotriene A-4 hydrolase (Homo sapiens)', 2.54),
  ('CN(CCCOc1ccc(Oc2ccc(F)cc2)cc1)CCC(=O)O', 'Leukotriene A-4 hydrolase (Homo sapiens)', 2.32),
  ('CN(CCCOc1ccc(Cc2ccccc2)cc1)CCS(=O)(=O)O', 'Leukotriene A-4 hydrolase (Homo sapiens)', 3.72),
  ('O=C(O)CCNCCCOc1ccc(Cc2ccccc2)cc1', 'Leukotriene A-4 hydrolase (Homo sapiens)', 2.45),
  ('CN(CCCOc1ccc(Oc2ccc(-c3ccccc3)cc2)cc1)CCC(=O)O', 'Leukotriene A-4 hydrolase (Homo sapiens)', 2.28),
  ('COC(=O)CCN(C)CCCOc1ccc(Cc2cccs2)cc1', 'Leukotriene A-4 hydrolase (Homo sapiens)', 1.98),
  ('CCOC(=O)CCNCCCOc1ccc(Cc2ccccc2)cc1', 'Leukotriene A-4 hydrolase (Homo sapiens)', 2.65),
  ('CCOC(=O)CNCCCOc1ccc(Cc2ccccc2)cc1', 'Leukotriene A-4 hydrolase (Homo sapiens)', 3.04),
  ('CCOC(=O)CCNCCCCOc1ccc(Cc2ccccc2)cc1', 'Leukotriene A-4 hydrolase (Homo sapiens)', 1.88),
  ('CCOC(=O)CNCCCCCOc1ccc(Cc2ccccc2)cc1', 'Leukotriene A-4 hydrolase (Homo sapiens)', 2.62),
  ('COC(=O)CCCN(C)CCOc1ccc(Cc2ccccc2)cc1', 'Leukotriene A-4 hydrolase (Homo sapiens)', 2.66),
  ('CN(CCCOc1ccc(Oc2ccc(-c3nccs3)cc2)cc1)CCC(=O)O', 'Leukotriene A-4 hydrolase (Homo sapiens)', 1.86),
  ('CN(CCCCOc1ccc(Cc2ccccc2)cc1)CC(=O)O', 'Leukotriene A-4 hydrolase (Homo sapiens)', 2.65),
  ('CN(CCCOc1ccc(Cc2ccccc2)cc1)CCC(N)=O', 'Leukotriene A-4 hydrolase (Homo sapiens)', 2.04),
  ('CCOC(=O)CN(C)CCCCOc1ccc(Cc2ccccc2)cc1', 'Leukotriene A-4 hydrolase (Homo sapiens)', 3.52),
  ('CN(CCCOc1ccc(Cc2ccc(F)cc2)cc1)CCC(=O)O', 'Leukotriene A-4 hydrolase (Homo sapiens)', 2.28),
  ('CCOC(=O)CCCNCCOc1ccc(Cc2ccccc2)cc1', 'Leukotriene A-4 hydrolase (Homo sapiens)', 3.40);
